Molecular target: GTPase KRas (Homo sapiens, UniProt P01116, G12C)
Experiment: Inhibition of human KRAS G12C mutant incubated for 2 hrs by scintillation counter based covalent competition assay
REPORTED PROPERTY: pIC50
Kindly note that pIC50 refers to -log10 of the concentration in mol/L and answer with the value alone.

Qu. May I ask what pIC50 has been recorded for C=CC(=O)N1CC2(CC(n3nc(-c4ccc5c(c4)CCN5C(=O)CN4CC[C@H](F)C4)c(-c4c(Cl)c(C)cc5[nH]ncc45)c3C)C2)C1 (stereo in doubt; 76b) ?
Ans. 4.88

Qu. May I ask what pIC50 has been recorded for C=CC(=O)N1CC2(CC(n3nc(-c4ccc5c(c4)CCN5C(=O)CN4CC[C@H](F)C4)c(-c4c(Cl)c(C)cc5[nH]ncc45)c3C)C2)C1 (stereo in doubt; 76a) ?
Ans. 7.82
